- System: Rat fibroblasts (CREF)
- protocol_summary: Peg3 promoter luciferase inhibitors, potency, dose response, cell-based, HeLa, CREF/GAPDH counter-screen panel (AID 624167)
- test_conditions: CREF/GAPDH counter-screens; run 2, dose range 1, at 100 µM (top of the series)
Reported inhibition is given for each of the following molecules.

Sample answers from the record:
1. CS(=O)(=O)c1ccc(-c2cn3cc(C(=O)O)ccc3n2)cc1    66.8%
2. O=C1c2cccc3cc([N+](=O)[O-])cc(c23)C(=O)N1CCN1CCCC1    83%
3. CCCOc1ccc2cc(-c3ccccn3)c(=O)oc2c1    95.4%

Indicate the recorded inhibition value for this molecule: O=C(COc1ccc(Cl)cc1Cl)Nc1ccccn1
99.7%

Indicate the recorded inhibition value for this molecule: COc1ccccc1C(=O)Nc1nc2ccccc2s1
99.5%

Indicate the recorded inhibition value for this molecule: COc1cccc(/C=N/NC(=O)c2c(C)nc3ccc(Cl)cn23)c1O
46.7%

Indicate the recorded inhibition value for this molecule: CN[C@H]1C[C@H]2c3[nH]c4ccc(-c5ccc(OC)cc5)cc4c3CCN2C(=O)[C@H]1[C@H](C)O
99.6%

Each recorded value in this set is attributed to PubChem BioAssay.
